- Assay Text: Pseudomonas biofilm growth suppression – PAO1 strain, BacTiter-Glo luminescence, LB-PBS, primary screen (AID 1144)
- Condition Label: P. aeruginosa PAO1 biofilm, 12 h, higher = more signal
Can you tell me z-score for the items I'm about to list?
Give the figure by itself; no unit, no explanation.

Which z-score reading was recorded for the compound COCCOC(=O)N1C(=O)[C@@]2(c3cc(C#Cc4ccc(OC)cc4)ccc31)[C@H](C(=O)N1CCc3cc(OC)c(OC)cc3C1)[C@H]1C(=O)O[C@H](c3ccccc3)[C@H](c3ccccc3)N1[C@@H]2c1ccc(O)cc1 ? 0.693

Which z-score reading was recorded for the compound CN(C)C(=O)[C@@]1(Cc2ccccc2N=[N+]=[N-])N=C(c2ccc(OCCCO)cc2)O[C@H]1c1ccccc1N=[N+]=[N-] ? 1.19

Which z-score reading was recorded for the compound CN(C)C(=O)[C@@]1(CCC(=O)OC(C)(C)C)N=C(c2ccc(OCCCO)cc2)O[C@H]1c1ccccc1N=[N+]=[N-] ? -0.0215

Which z-score reading was recorded for the compound CC(C)C[C@@H]1NC(=O)[C@@H]2C[C@H](C(=O)NCc3ccc(F)cc3)[C@H](c3ccc(O)cc3)N2C1=O ? -0.0526

Which z-score reading was recorded for the compound CC(C)=CCCC(C)=CC(O)C1C=CC2C(=O)N(c3ccccc3)C(=O)C2N1Nc1ccc([N+](=O)[O-])cc1 (centres undefined) ? -0.322

Which z-score reading was recorded for the compound [N-]=[N+]=NCc1ccccc1[C@H]1OC(c2ccc(OCCCO)cc2)=N[C@@]1(Cc1ccccc1N=[N+]=[N-])C(=O)NCCN1CCOCC1 ? 0.28

Which z-score reading was recorded for the compound COCCOC(=O)N1C(=O)[C@@]2(c3cc(C#CC4(O)CCCCCC4)ccc31)[C@H](C(=O)N1CCc3cc(OC)c(OC)cc3C1)[C@H]1C(=O)O[C@H](c3ccccc3)[C@H](c3ccccc3)N1[C@@H]2c1ccccc1OCCO ? 1.66

Which z-score reading was recorded for the compound O=c1c2ccc(Br)cc2nc(-c2ccccc2)n1Cc1cccc(O)c1 ? 0.32

Which z-score reading was recorded for the compound COc1cc2c(cc1OC)CN(C(=O)[C@@H]1[C@H]3C(=O)O[C@H](c4ccccc4)[C@H](c4ccccc4)N3[C@H](c3ccc(OCCO)cc3)[C@@]13C(=O)Nc1ccc(C#CCCO)cc13)CC2 ? -1.07

---

- Measured Target: Follistatin-related protein 3 (Homo sapiens)
- Assay Text: compounds binding follistatin-related protein 3 – biochemical, small-molecule microarray, 635 nm fluorescence, primary screen (AID 1105);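 further: score merges emission near 667 nm and signal to noise per printed spot across three slides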
- Condition Label: FSTL3 binding, higher = more signal
Assay Endpoint: composite z-score

Which composite z-score reading was recorded for the compound C=C(CCCC)/C(=C/C[C@@H](OC(=O)c1ccncc1)c1ccccc1OCCO)c1cc(C(=O)OC)ccc1OC ? 0.422

Which composite z-score reading was recorded for the compound CCOC(=O)C[C@H]1[C@H](OC(=O)Cc2ccc3c(c2)OCO3)[C@@H](NC(=O)c2ccccc2)c2cc(OCCCO)ccc2N1C(=O)c1ccccc1 ? 0.371

Which composite z-score reading was recorded for the compound C=C[C@H](C)[C@H](OC(=O)Nc1ccc(SC)cc1)c1ccc(O)c2ccccc12 ? 0.284

Which composite z-score reading was recorded for the compound COC(=O)[C@@]1(Cc2ccccc2N=[N+]=[N-])N=C(c2ccc(OCCCO)cc2)O[C@H]1c1ccccc1 ? 0.666

---

- Assay Text: probe aNOTCH3 binding on compound microarray – biochemical, small-molecule microarray, 635/667 nm fluorescence, primary screen (AID 1120);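 further: probe is a biotin-tagged antibody raised against NOTCH3 rather than NOTCH3 protein; score merges spot fluorescence near 667 nm with spot signal to noise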
- Condition Label: higher = more signal
Assay Endpoint: composite z-score
Give the figure by itself; no unit, no explanation.

Which composite z-score reading was recorded for the molecule COCCCNC(=O)[C@@]1(Cc2ccccc2N=[N+]=[N-])N=C(c2ccc(OCCCO)cc2)O[C@H]1c1ccccc1CN=[N+]=[N-] ? 0.315

Which composite z-score reading was recorded for the molecule CCOC(=O)C1=CC[C@@H](c2ccc(N(CC)CC)cc2)N(S(=O)(=O)c2ccc(C)cc2)[C@H]1c1ccc([N+](=O)[O-])cc1 ? 0.0116

Which composite z-score reading was recorded for the molecule Cc1cc(C)c(C(O)C2C=CC3C(=O)N(c4ccccc4)C(=O)C3N2Nc2ccc([N+](=O)[O-])cc2)c(C)c1 (stereo unspecified) ? 0.418

Which composite z-score reading was recorded for the molecule O=C1OCC=C[C@H]2OC34C=CCN(CCN5CCOCC5)C(=O)[C@H]3N(CCCCCO)C(=O)[C@@H]4[C@@H]12 (stereo partly specified) ? 0.0694

Which composite z-score reading was recorded for the molecule C[C@@]1([C@@H](NC(=O)c2cccs2)c2ccc(-c3ccccc3)cc2)C[C@H]1C1CCCCC1 ? -0.0027

Which composite z-score reading was recorded for the molecule CCOC(=O)C[C@H]1[C@H](OC(=O)Cc2ccc3c(c2)OCO3)[C@@H](NC(=O)c2ccccc2)c2cc(OCCCO)ccc2N1C(=O)c1ccc2ccccc2n1 ? -0.226

---

- Assay Text: inhibition of PAO1 biofilm formation – strain PAO1, LB-PBS medium, absorbance 600 nm, primary screen (AID 1176); further: test concentration not given here
- Condition Label: P. aeruginosa PAO1 growth/biofilm, A600, 12 h; higher = more signal
Label YES for high-side z-score (at or above 0.9) and NO for low-side z-score (below it).

Is the recorded value of z-score equal to or greater than 0.9 for this compound? O=C1N(Cc2ccccc2)c2ccccc2[C@H]2OC(c3ccc(OCCCO)cc3)=N[C@@]12CCS(=O)(=O)c1ccccc1 YES

Is the recorded value of z-score equal to or greater than 0.9 for this compound? CN1C(=O)C2C=CC(C(O)C3CCCCC3)N(N(c3ccccc3)c3ccccc3)C2C1=O (configuration not stated) NO

Is the recorded value of z-score equal to or greater than 0.9 for this compound? CN(C)CCCCNC(=O)[C@H]1C[C@H]2C(=O)N[C@@H](CCCC[N+](C)(C)C)C(=O)N2[C@H]1c1cccc(OCCO)c1 YES

Is the recorded value of z-score equal to or greater than 0.9 for this compound? COC(=O)[C@]1(Cc2ccccc2CN=[N+]=[N-])N=C(c2ccc(OCCCO)cc2)O[C@@H]1c1ccccc1 YES

Is the recorded value of z-score equal to or greater than 0.9 for this compound? COC(=O)[C@@]1(Cc2ccccc2)[C@H]2c3cc(C(=O)N4CCCC4)n(Cc4ccc(OC(F)(F)F)cc4)c3C[C@H]2CN1C(=O)c1ccccc1 NO

Is the recorded value of z-score equal to or greater than 0.9 for this compound? CC(C)NC(=O)[C@@H]1c2ccccc2C(=O)N(Cc2cc(C(F)(F)F)cc(C(F)(F)F)c2)[C@H]1c1ccc(CO)cc1 NO

Is the recorded value of z-score equal to or greater than 0.9 for this compound? COC(=O)c1ccc(OC)c(/C=C\CC(CCc2ccccc2)OC(=O)c2ccncc2)c1 (configuration not stated) NO

---

- Assay Text: plasmodial surface anion channel blockers, osmotic lysis – cell-based, P. falciparum Indochina, OD700, 18 h, primary screen (AID 1157)
- Condition Label: P. falciparum Indochina infected erythrocytes, osmotic lysis OD700, 18 h; higher = more signal, called active from +8 up or from −8 down
Can you tell me z-score for the items I'm about to list?
Give the figure by itself; no unit, no explanation.

Which z-score reading was recorded for the molecule COCC1=C([C@H](O)CCc2ccccc2)[C@H](CO)[C@@H]2C(=O)N(C)C(=O)[C@@H]2C1 ? 0.254

Which z-score reading was recorded for the molecule O=C1c2ccccc2[C@](Cc2ccccc2I)(C(=O)NCC(F)(F)F)[C@H](c2ccc(CO)cc2)N1Cc1ccccc1 ? 0.278

Which z-score reading was recorded for the molecule CCCC=C(CCC)[C@@H](NS(=O)(=O)c1cccc2cccnc12)c1ccc(C(=O)OC)cc1 ? -1.19

Which z-score reading was recorded for the molecule CCCc1cc2c(n1Cc1ccc(OC)cc1)C(C)C1CN(C(=O)c3ccccc3)C(C)(C(=O)OC)C21 (stereo not drawn) ? 0.25

Which z-score reading was recorded for the molecule COC(=O)[C@@]1(Cc2ccccc2)[C@H]2c3cc(C(=O)N(C)C)n(Cc4ccc(O)c(OC)c4)c3C[C@H]2CN1C(=O)c1ccccc1 ? -1.32

Which z-score reading was recorded for the molecule C=C(C)[C@@H]1CC=C(C(O)C2C=CC3C(=O)N(C4CCCCC4)C(=O)C3N2Nc2ccc(OC)cc2)CC1 (stereo partly drawn) ? 0.56

Which z-score reading was recorded for the molecule CCOC(=O)C[C@H]1[C@H](OC(=O)c2ccc(C(=O)c3ccccc3)cc2)[C@@H](NC(=O)C2CCCCC2)c2cc(OCCCO)ccc2N1C(=O)Cc1ccc(OC)cc1 ? -0.206

Which z-score reading was recorded for the molecule COC(=O)[C@]1(Cc2ccccc2N=[N+]=[N-])N=C(c2ccc(OCCCO)cc2)O[C@@H]1c1ccccc1 ? 7.41

---

- Assay Text: compound effects on multiple myeloma cell viability – MM1S, calcein-AM fluorescence, 48 h, basal, profiling panel (AID 1165);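 further: viability of MM1S multiple myeloma cells under basal unstimulated conditions; test concentration not given here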
- Condition Label: higher = more signal
Can you tell me z-score for the items I'm about to list?
Give the figure by itself; no unit, no explanation.

Which z-score reading was recorded for the compound CN1C(=O)C2C=CC(C(O)c3cccc4ccccc34)N(NC(=O)OC(C)(C)C)C2C1=O (stereo not drawn) ? -0.248

Which z-score reading was recorded for the compound C[N+](C)(C)CCCCNC(=O)[C@H]1C[C@H]2C(=O)NCC(=O)N2[C@H]1c1ccc(O)cc1 ? 0.519

Which z-score reading was recorded for the compound O=C(O)[C@@]1(Cc2ccccc2)COC(c2ccc(OCCCO)cc2)=N1 ? -0.108

Which z-score reading was recorded for the compound COc1cccc(C[C@H]2C[C@@H](CO[Si](C(C)C)(C(C)C)C(C)C)N3C(=O)[C@]4(C(C)=O)O[C@]23[C@H]2C(=O)N(C)C(=O)[C@H]24)c1 ? -2.93

Which z-score reading was recorded for the compound C=CCN1C(=O)[C@@]2(O[C@@H](CCO)[C@H]([Si](C)(C)c3ccc(OC)cc3)[C@H]2C)c2cc(NC(=O)[C@H](C)O)ccc21 ? -2.69

Which z-score reading was recorded for the compound COC(=O)[C@@]1(Cc2ccccc2N=[N+]=[N-])N=C(c2ccc(OCCCO)cc2)O[C@H]1c1ccccc1 ? -3.58

Which z-score reading was recorded for the compound CCOC(=O)C1=CC[C@@H](c2ccc(N(CC)CC)cc2)N(S(=O)(=O)c2ccc(C)cc2)[C@H]1c1ccc([N+](=O)[O-])cc1 ? -0.0595

Which z-score reading was recorded for the compound O=C1N(CCS(=O)(=O)c2ccccc2)c2ccccc2[C@H]2OC(c3ccc(OCCCO)cc3)=N[C@@]12CCS(=O)(=O)c1ccccc1 ? 0.201

Which z-score reading was recorded for the compound COCCOC(=O)N1C(=O)[C@@]2(c3cc(C#CCC(C(=O)OC)C(=O)OC)ccc31)[C@H](C(=O)N1CCCCCCC1)[C@H]1C(=O)O[C@H](c3ccccc3)[C@H](c3ccccc3)N1[C@@H]2c1ccc(O)cc1 ? -0.575

Which z-score reading was recorded for the compound CCCCC(O)C1C=CC2C(=O)N(Cc3ccccc3)C(=O)C2N1n1cnnc1 (stereo not drawn) ? 0.179

Which z-score reading was recorded for the compound O=C1NC(=O)C2C1C=CC(C(O)c1ccc(-c3ccccc3)s1)N2Nc1ccccn1 (stereo not drawn) ? -0.0747

Which z-score reading was recorded for the compound CCCNC(=O)[C@@]1(Sc2ccc(C)cc2)CC(=O)N(Cc2ccccc2)[C@@H]1c1ccc(CO)cc1I ? -2.18

Which z-score reading was recorded for the compound C#CCOC(=O)N[C@H](C=CCCCC)c1ccccc1 ? -0.334
